Origin of measurements: a melting point compilation (Tetko et al.; mined from patent text by program, amines drawn as free bases though some values may be those of a salt)

# maps each entry to its melting point

>  <Compound>
Cc1nc2c(c3c1[nH]c1ccccc13)CCC(C)(C)C2

>  <Result>
241 to 243 °C

$$$$
>  <Compound>
COc1cc(C(C)=O)ccc1OCCC(C)N1CCN(c2nn(C(=O)c3ccccc3)c3cc(F)ccc23)CC1 (stereo not given)

>  <Result>
138 to 140 °C

$$$$
>  <Compound>
NC(=O)c1ccc(Oc2nccc(-c3c(-c4ccc(F)cc4)ncn3C3CCNCC3)n2)cc1

>  <Result>
229 to 230 °C

$$$$

// melting point lookup, key: COC(=O)C=Cc1ccc2[nH]ccc2c1
138 to 140 °C

// melting point lookup, key: CCC(CC)(CC(=O)Nc1cccc(OCc2ccc3ccc(F)cc3n2)c1)C(=O)O
92 to 93 °C

// melting point lookup, key: O=C(CCCOc1ccc2nc3[nH]c(=O)[nH]c3cc2c1)NC1CCCCC1
> 320 °C

// melting point lookup, key: COc1cc2c(Nc3ccc(Sc4nccn4C)c(Cl)c3)c(C#N)cnc2cc1OCCCCl
271 to 276 °C

// melting point lookup, key: CCOC(=O)COc1cc(-c2cc3nccnc3[nH]2)ccc1OC
183 to 184 °C

// melting point lookup, key: O=C(c1ccc2n1Cc1ccccc1N(C(=O)c1ccc(-c3cccc4ccccc34)cc1)C2)N(CCO)CCO
221 to 224 °C

// melting point lookup, key: Cc1cc(NC(C)(C)C)nc(Cl)c1C#N
109 °C

// melting point lookup, key: COc1ccc(-n2c(-c3ccc(OCCCl)cc3)nc3c(OC)cccc3c2=O)cc1
151 to 152 °C

// melting point lookup, key: NC(=O)c1sc2nccc(NC3CCCCC3)c2c1N
244 to 247 °C

// melting point lookup, key: COc1cc(CF)nc(N)n1
119 to 121 °C
